IC50: recorded values
target: ALK5 (Homo sapiens); construct: endogenous in cells; test: Cell-based luciferase reporter assay for ALK5 activity; conditions: (CAGA)-12-luciferase reporter, Smad 2/3-responsive promoter, 2 ng/ml TGF-β1 stimulation for 12 hours; read-out: Relative luciferase activity: IC50 value
Sequence (P36897 34-503): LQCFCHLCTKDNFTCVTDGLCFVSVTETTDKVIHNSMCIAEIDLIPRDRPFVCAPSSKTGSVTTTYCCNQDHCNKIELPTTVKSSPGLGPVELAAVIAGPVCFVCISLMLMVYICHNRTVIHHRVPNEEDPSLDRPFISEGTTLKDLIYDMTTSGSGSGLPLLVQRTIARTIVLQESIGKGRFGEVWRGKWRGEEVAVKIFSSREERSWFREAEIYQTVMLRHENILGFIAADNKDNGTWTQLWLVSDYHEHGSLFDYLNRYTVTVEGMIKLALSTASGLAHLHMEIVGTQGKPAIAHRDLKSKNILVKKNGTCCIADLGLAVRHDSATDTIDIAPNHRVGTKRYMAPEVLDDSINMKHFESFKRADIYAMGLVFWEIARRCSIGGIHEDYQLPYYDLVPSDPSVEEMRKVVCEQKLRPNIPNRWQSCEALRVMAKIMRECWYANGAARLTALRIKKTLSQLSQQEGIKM

# count of solved cases: 3
input: Could you tell me which IC50 is on file for CNC(=O)c1ccc(CNc2nc(-c3ccn4ncnc4c3)c(-c3cccc(C)n3)[nH]2)cc1 ?
output: > 100 nM

input: Recorded IC50 of Cc1cccc(-c2[nH]c(NCc3ccccc3F)nc2-c2ccn3nccc3c2)n1 , please.
output: 10 to 100 nM

input: What measured IC50 goes with Cc1cccc(-c2[nH]c(NCc3ccc(Cl)cc3F)nc2-c2ccn3ncnc3c2)n1 ?
output: 10 to 100 nM

---
input: Look up IC50 for this compound: Cc1cccc(-c2[nH]c(NCc3ccc(Cl)cc3)nc2-c2ccn3ncnc3c2)n1
output: < 10 nM
